Data credit: PubChem BioAssay (NCI)

growth overview
- System: SF-268 CNS
- test.method.notes: NCI-60 one-dose screen, 48 h (100 = growth as untreated, 0 = no growth, -100 = all killed)
- study.conditions: 10 µM unless noted
Compounds without any hit were thinned out: in the full panel of roughly 83,000, 20% have a hit.
measured.endpoint: growth (%)

[[record]]
chemical_structure = "N#C[Se]CCN1C(=O)c2ccccc2C1=O"
target_of_assay = "SF-268 CNS"
observed_result = 20.2

[[record]]
chemical_structure = "O=C1C(Cl)=C(N2CCOCC2)C(=O)c2ccccc21"
target_of_assay = "SF-268 CNS"
observed_result = 87.6

[[record]]
chemical_structure = "CC[C@H](C)[C@H](NC(=O)[C@H]1CCCCN1C)C(=O)N(C)[C@H](CCc1nc(C(=O)N[C@@H](Cc2ccccc2)C[C@H](C)C(=O)OC)cs1)C(C)C"
target_of_assay = "SF-268 CNS"
observed_result = 19.6

[[record]]
chemical_structure = "CCn1c2ccccc2c2cc(C(=O)c3ccc(C)c4ccccc34)ccc21"
target_of_assay = "SF-268 CNS"
observed_result = 19.8

[[record]]
chemical_structure = "COC(=O)[C@@H](C)C[C@H](Cc1ccccc1)NC(=O)c1nc([C@@H](C[C@H](C(C)C)N(C)C(=O)[C@@H](NC(=O)[C@H]2CC(=O)CCN2C)C(C)C)OC(C)=O)sc1C(C)C"
target_of_assay = "SF-268 CNS"
observed_result = 20


---

- Test system: RXF 393 renal
- test.method.notes: NCI-60 one-dose screen, 48 h (100 = growth as untreated, 0 = no growth, -100 = all killed)
- study.conditions: 10 µM unless noted
Compounds without any hit were thinned out: in the full panel of roughly 83,000, 20% have a hit.
measured.endpoint: growth (%)

[[record]]
compound = "COC(=O)[C@@H](C)C[C@H](Cc1ccccc1)NC(=O)c1csc([C@@H](C[C@H](C(C)C)N(C)C(=O)[C@@H](NC(=O)[C@H]2CCCCN2C)C2CCCCC2)OC(C)=O)n1"
observed_result = 65.5

[[record]]
compound = "COc1ccc(S(=O)(=O)N(Cc2ccc3c(c2)C=CC(C)(C)O3)c2ccccc2)cc1OC"
observed_result = 77.2

[[record]]
compound = "Oc1c(CCl)cc(Cl)cc1CCl"
observed_result = 119

[[record]]
compound = "Cc1c(NS(=O)(=O)c2ccccc2)ccc([N+](=O)[O-])c1Cl"
observed_result = 77

[[record]]
compound = "C=COC(=O)CCN1CC1"
observed_result = 111

[[record]]
compound = "CC1(C)C(C(=O)c2cn(CCCCF)c3ccccc23)C1(C)C"
observed_result = 84.5

[[record]]
compound = "O=C(Nc1ccc(Br)cc1)c1cc(Br)cc(Br)c1O"
observed_result = -9.8

[[record]]
compound = "O=C(Nc1ccc(O)cc1)C(Cl)(Cl)Cl"
observed_result = 107

[[record]]
compound = "Cc1ccc2c(C(C[N+](=O)[O-])c3cccs3)c(-c3ccccc3)[nH]c2c1 (configuration not stated)"
observed_result = 13.8

[[record]]
compound = "CCCCCCC(=O)NC1=C(N2CC2)C(=O)C(NC(=O)CCCCCC)=C(N2CC2)C1=O"
observed_result = 25.7

[[record]]
compound = "CCCCCC1(CCBr)C(=O)NC(=O)NC1=O"
observed_result = 107

[[record]]
compound = "Cn1cccc1C1CC(=O)N(CCC[Se]C#N)C1=O (configuration not stated)"
observed_result = -48.7

[[record]]
compound = "Cc1ccc(C(Cc2ccccc2)NCCO)cc1 (configuration not stated)"
observed_result = 99.2

[[record]]
compound = "C/C(=C\\c1ccn(-c2ccc(N)c(F)c2)n1)[C@@H]1C[C@@H]2O[C@]2(C)CCC[C@H](C)[C@H](O)[C@@H](C)C(=O)C(C)(C)[C@@H](O)CC(=O)O1"
observed_result = 0.639

[[record]]
compound = "C[C@]12CCc3sc(NCCc4ccccc4)nc3C1=CC[C@@H]1[C@@H]2CC[C@]2(C)C(=O)CC[C@@H]12"
observed_result = 20

[[record]]
compound = "NC(=O)CNc1ccc([As]=[As]c2ccc(NCC(N)=O)cc2)cc1 (configuration not stated)"
observed_result = 32.1

[[record]]
compound = "CCN(CCO)C(Cc1ccccc1)c1ccccc1 (configuration not stated)"
observed_result = 106

